Target: recombinant human CK2 (RRββ-holoenzyme) (Homo sapiens, UniProt P68400)
Sequence (P68400 whole entry): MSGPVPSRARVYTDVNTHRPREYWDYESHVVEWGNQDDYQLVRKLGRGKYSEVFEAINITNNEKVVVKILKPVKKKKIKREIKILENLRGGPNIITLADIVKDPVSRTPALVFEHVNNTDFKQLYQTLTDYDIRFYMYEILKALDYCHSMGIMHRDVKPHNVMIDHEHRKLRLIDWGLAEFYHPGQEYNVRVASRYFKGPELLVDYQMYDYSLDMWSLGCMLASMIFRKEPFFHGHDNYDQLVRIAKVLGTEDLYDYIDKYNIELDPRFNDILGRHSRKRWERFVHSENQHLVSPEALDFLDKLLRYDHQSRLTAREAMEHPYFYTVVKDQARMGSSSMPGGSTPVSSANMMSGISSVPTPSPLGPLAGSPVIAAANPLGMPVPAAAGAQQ
Sequence (P67870 whole entry partner): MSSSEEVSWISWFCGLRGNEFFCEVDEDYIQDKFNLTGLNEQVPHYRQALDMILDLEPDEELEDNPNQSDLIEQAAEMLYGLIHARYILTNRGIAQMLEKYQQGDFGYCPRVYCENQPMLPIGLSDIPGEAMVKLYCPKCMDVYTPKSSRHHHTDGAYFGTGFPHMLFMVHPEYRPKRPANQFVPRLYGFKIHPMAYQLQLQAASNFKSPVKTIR
Assay: CK2 Kinase Assay (33P-ATP, filter plate)
Conditions: final ATP concentration 15 μM, 10 min at 30° C, eight concentrations; read-out: protein kinase CK2 IC50
PROPERTY_LABEL: IC50 (µM)
Please state the figure in µM; there is no need to write the unit.

Prompt: Please report the recorded IC50 for Clc1cccc(Nc2nc3cnccc3c3nc4cnccn4c23)c1 [Compound 1] .
Completion: 0.018

The measurements presented in this section are drawn from patent US11958853B1.
